# targetUnderTest: Ba/F3 cells containing Ros1 wild-type protein (Homo sapiens, UniProt P08922, cells depend on it, form not given)
# Sequence (P08922 whole entry, change not shown): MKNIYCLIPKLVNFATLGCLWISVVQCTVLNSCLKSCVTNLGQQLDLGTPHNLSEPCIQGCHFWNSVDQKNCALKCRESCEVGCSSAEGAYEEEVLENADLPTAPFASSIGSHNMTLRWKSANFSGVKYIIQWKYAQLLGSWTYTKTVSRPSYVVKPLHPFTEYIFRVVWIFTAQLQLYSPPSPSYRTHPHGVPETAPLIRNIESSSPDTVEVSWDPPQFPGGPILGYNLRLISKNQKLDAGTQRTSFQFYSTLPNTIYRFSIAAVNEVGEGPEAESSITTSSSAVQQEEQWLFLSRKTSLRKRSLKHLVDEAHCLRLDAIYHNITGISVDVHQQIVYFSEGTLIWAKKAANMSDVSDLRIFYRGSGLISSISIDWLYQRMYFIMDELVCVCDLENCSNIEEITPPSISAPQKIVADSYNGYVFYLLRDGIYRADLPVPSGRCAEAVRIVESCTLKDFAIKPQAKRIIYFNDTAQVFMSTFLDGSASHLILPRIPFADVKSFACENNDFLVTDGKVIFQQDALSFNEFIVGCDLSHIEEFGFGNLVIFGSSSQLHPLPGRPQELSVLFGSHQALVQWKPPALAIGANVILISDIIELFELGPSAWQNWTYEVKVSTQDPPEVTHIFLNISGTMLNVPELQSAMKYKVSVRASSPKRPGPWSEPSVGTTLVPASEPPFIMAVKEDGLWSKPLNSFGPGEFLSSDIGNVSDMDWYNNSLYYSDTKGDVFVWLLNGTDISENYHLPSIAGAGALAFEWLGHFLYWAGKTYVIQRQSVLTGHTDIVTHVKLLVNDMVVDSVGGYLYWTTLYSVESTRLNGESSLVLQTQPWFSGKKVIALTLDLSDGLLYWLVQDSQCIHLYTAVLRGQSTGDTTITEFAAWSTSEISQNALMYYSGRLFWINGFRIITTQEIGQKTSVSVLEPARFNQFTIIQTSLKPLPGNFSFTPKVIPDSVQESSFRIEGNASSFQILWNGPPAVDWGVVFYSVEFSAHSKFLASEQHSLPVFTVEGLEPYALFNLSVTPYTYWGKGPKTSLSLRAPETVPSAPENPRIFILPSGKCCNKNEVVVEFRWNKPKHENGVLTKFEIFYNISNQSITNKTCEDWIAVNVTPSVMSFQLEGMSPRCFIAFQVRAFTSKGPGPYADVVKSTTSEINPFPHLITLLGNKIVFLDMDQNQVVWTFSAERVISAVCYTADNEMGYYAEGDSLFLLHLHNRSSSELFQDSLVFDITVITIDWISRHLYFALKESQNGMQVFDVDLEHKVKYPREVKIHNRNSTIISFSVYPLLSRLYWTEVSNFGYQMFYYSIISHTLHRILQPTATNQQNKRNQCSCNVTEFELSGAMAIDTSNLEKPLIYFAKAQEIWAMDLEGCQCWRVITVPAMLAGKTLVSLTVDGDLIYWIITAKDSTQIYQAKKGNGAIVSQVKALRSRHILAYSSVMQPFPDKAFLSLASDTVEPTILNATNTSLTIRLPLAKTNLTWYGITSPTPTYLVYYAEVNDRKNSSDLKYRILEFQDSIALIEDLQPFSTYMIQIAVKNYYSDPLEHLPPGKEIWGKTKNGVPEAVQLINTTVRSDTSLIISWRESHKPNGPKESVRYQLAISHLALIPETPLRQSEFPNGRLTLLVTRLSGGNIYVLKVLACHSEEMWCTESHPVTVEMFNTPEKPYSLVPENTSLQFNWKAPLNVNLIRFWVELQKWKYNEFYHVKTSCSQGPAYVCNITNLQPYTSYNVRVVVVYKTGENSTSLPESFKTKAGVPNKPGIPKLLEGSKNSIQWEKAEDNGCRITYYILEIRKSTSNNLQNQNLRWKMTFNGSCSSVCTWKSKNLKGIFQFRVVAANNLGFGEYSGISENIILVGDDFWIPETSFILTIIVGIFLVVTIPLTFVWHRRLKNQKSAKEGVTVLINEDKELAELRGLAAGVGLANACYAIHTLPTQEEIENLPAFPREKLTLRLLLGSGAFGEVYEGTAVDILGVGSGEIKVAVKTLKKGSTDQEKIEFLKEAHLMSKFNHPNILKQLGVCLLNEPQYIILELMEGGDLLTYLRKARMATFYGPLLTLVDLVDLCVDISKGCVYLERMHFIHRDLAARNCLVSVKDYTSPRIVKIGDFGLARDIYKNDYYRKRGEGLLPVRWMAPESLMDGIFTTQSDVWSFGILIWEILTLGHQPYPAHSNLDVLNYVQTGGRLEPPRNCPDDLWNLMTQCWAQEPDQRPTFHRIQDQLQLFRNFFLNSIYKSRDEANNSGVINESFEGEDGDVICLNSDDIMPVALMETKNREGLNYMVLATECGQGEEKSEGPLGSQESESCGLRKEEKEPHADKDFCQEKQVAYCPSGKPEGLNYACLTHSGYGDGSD
# experiment: Ba/F3-Ros1 cell proliferation assay, wild-type Ros1, without IL-3
# Format: cell-based, murine
# measurementContext: -log IC50 (M); wild-type Ros1, no IL-3, 24 h, Alamar Blue
BaF3-ROS1 − IL3 pIC50 values, listed per item
reportedMetric: BaF3-ROS1 − IL3 pIC50

>>> numericreadout("Cc1ccn2nc(-c3ccncc3)c(-c3ccc(OCc4ccc(C(C)C)cc4)cc3F)c2n1")
7.5
>>> numericreadout("CC(C)c1ccc(COc2ccc(-c3c(-c4ccncc4)nn4cccnc34)cc2)cc1")
6.8
>>> numericreadout("CNC(=O)c1ccnc2c(-c3ccc(OCc4ccc(C(C)C)cc4)cc3)c(-c3ccncc3)nn12")
6.8
>>> numericreadout("CC(C)c1ccc(COc2ccc(-c3c(-c4ccncc4)nn4c3NCC4)cn2)cc1")
7.1
>>> numericreadout("CC(C)c1ccc(COc2ccc(-c3c(-c4ccncc4)nn4c3NC(=O)C4)cc2)cc1")
6.8
>>> numericreadout("CC(C)c1ccc(COc2ccc(-c3c(-c4ccncc4)nn4c3N(CCO)C(=O)CC4)cc2)cc1")
6.8
>>> numericreadout("CC(C)c1ccc(COc2ccc(-c3c(-c4ccncc4)nn4c3N(C)C(=O)CC4)cc2)cc1")
6.4
>>> numericreadout("CC(C)c1ccc(COc2ccc(-c3c(-c4ccncc4)nn4ccc(=O)[nH]c34)cc2)cc1")
7.1
>>> numericreadout("CC(C)c1ccc(COc2ccc(-c3c(-c4ccncc4)nn4c3NCC4)cc2)cc1")
7.0
>>> numericreadout("CC(C)c1ccc(COc2ccc(-c3c(-c4ccncc4)nn4c3NCCC4)c(F)c2)cc1")
7.6
>>> numericreadout("CC(C)c1ccc(COc2ccc(-c3c(-c4ccncc4)nn4c3N(CCO)CC4)cc2)cc1")
7.1
>>> numericreadout("CC(C)c1ccc(COc2ccc(-c3c(-c4ccncc4)nn4c3NC(CO)C4)cc2)cc1 (centres unmarked)")
7.0
>>> numericreadout("CC(C)c1ccc(COc2ccc(-c3c(-c4ccncc4)nn4c3NCC4)c(C#N)c2)cc1")
7.2
>>> numericreadout("CC(C)c1ccc(COc2ccc(-c3c(-c4ccncc4)nn4c3N(CCCN)CC4)cc2)cc1")
6.3
>>> numericreadout("CNC(=O)C1CCNc2c(-c3ccc(OCc4ccc(C(C)C)cc4)cc3)c(-c3ccncc3)nn21 (centres unmarked)")
7.1
>>> numericreadout("CC(C)c1ccc(COc2ccc(-c3c(-c4ccncc4)nn4c3N(C)CCC4)cc2)cc1")
6.7
